target under test: purified B. cereus beta-lactamase
experiment: Competitive substrate inhibition of β-LEAP hydrolysis, purified enzyme
Type: biochemical, Bacillus cereus
condition info: competitive beta-lactam substrate; 384 multi-well plate
observation type: inhibition of β-LEAP hydrolysis/fluorescence (inhibition constants, Ki, FIG. 13a)

1. CC1(C)S[C@@H]2[C@H](NC(=O)[C@H](N)c3ccccc3)C(=O)N2[C@H]1C(=O)O :: detected
2. CC1(C)S[C@@H]2[C@H](NC(=O)[C@H](N)c3ccc(O)cc3)C(=O)N2[C@H]1C(=O)O :: detected
